melting point overview

>  <molecule>
CC(C)(C(=O)O)c1nc2ccc(OCCCN3CCN(C(c4ccccc4)c4ccccc4)CC3)nn2c1Cl

>  <melting point>
118 to 121 °C

$$$$
>  <molecule>
Oc1nc2ccc3sccc3c2nc1O

>  <melting point>
187 °C

$$$$
>  <molecule>
O=C(NCCOC1CCCCO1)c1cc([N+](=O)[O-])cc([N+](=O)[O-])c1N(CCO)CCCl (stereo unspecified)

>  <melting point>
106 to 108 °C

$$$$
>  <molecule>
COC(=O)C1Oc2ccc3c(-c4ccccc4)noc3c2O1 (stereo unspecified)

>  <melting point>
78 to 80 °C

$$$$
>  <molecule>
CCOC(=O)c1cc(Cl)c(-n2nc(CC)c(C#N)c2N)c(Cl)c1

>  <melting point>
173 to 175 °C

$$$$
>  <molecule>
O=C(O)c1ccc2oc(=O)n(Cc3ccc4[nH]c(=O)[nH]c4c3)c2c1

>  <melting point>
230 to 231 °C

$$$$
>  <molecule>
Cc1cc2c(cc1O)C(C)(C)CC1(CC(C)(C)c3cc(OCCO)c(C)cc3O1)O2 (stereo unspecified)

>  <melting point>
186 to 188 °C

$$$$
>  <molecule>
Cc1csc(C2CCN(CCCC(O)c3ccc(F)cc3)CC2)n1 (stereo unspecified)

>  <melting point>
98 to 99 °C

$$$$

Please fill in: melting point reported for "CCCCCCCNCc1cccc(OCCCNc2nc(N)nn2C)c1" = 64 to 65 °C

Please fill in: melting point reported for "COc1cc(C(=O)CS(C)(=O)=O)cc(OC)c1N(C)C(C)=O" = 141 to 142 °C

Please fill in: melting point reported for "Nc1nc2ccccc2c2c1nc(CNC(=O)C1CC1)n2CC1(O)CCCCC1" = > 250 °C

###

recorded.endpoint: melting point

Before answering, review these 6 worked examples.
>  <compound>
CCOC(=O)c1ccc(-c2[nH]nc3c2C(=O)c2c(NC(=O)NN4CCC[C@@H]4COC)cccc2-3)s1

>  <endpoint.value>
221 to 222 °C

$$$$
>  <compound>
CC(C1OCCO1)N(C)C(=O)Nc1nnc(S(=O)(=O)N(C)C)s1 (stereo not drawn)

>  <endpoint.value>
194 to 196 °C

$$$$
>  <compound>
COC(=O)c1ccc(C(=O)N[C@@H]2CCCC[C@@H]2c2ccc(OC)c(OC)c2)cc1

>  <endpoint.value>
154 to 156 °C

$$$$
>  <compound>
CC(=O)OCCn1cc(C2=C(c3cn(C)c4ccccc34)C(=O)OC2=O)c2ccccc21

>  <endpoint.value>
198 to 199 °C

$$$$
>  <compound>
O=P12CN3CN(C1)S(=O)(=O)N(C3)C2

>  <endpoint.value>
245 to 246 °C

$$$$
>  <compound>
Nc1sc2c(c1C(=O)c1ccc3ccccc3c1)CCN(Cc1ccc(Cl)cc1)C2

>  <endpoint.value>
105 to 108 °C

$$$$

Please fill in: melting point reported for c1cc(-c2c(-c3ccsc3)nc3ccc(N4CC5CNCC5C4)nn23)ccn1 (stereo not drawn) = 196 to 198 °C

Please fill in: melting point reported for "COc1ccc(-c2cccc(C(=O)NCCC#N)c2)c2cc(Cc3cccc(C(F)(F)F)c3)oc12" = 126 to 127 °C

###

recorded.endpoint: melting point

>  <compound>
CCC(=O)NCc1cccc2c1C(=O)N(C1CCC(=O)NC1=O)C2=O (centres undefined)

>  <melting point>
219 to 221 °C

$$$$
>  <compound>
CCOC(=O)C(=CNn1cnnc1)C(=O)c1cc(F)c(Cl)nc1Cl

>  <melting point>
89 to 95 °C

$$$$
>  <compound>
COc1cc(O)c(C#N)c2cc(-c3ccc(O)c(F)c3)oc12

>  <melting point>
265 to 267 °C

$$$$

Please fill in: melting point reported for "Cc1cc(Oc2cc(C(F)(F)F)ccn2)ccc1OCCNc1ncnc2scnc12" = 107 to 111 °C

Please fill in: melting point reported for "CC(C)(C)C1=C(c2cc3cc(O)ccc3s2)OCC1(C)C" = 196 °C

Please fill in: melting point reported for "CCc1ccc2c(O)c(-c3nnnn3C)cnc2c1" = 270 to 273 °C

Please fill in: melting point reported for "OCc1cccc2nc(N3CCCCC3)sc12" = 107 to 108 °C

Please fill in: melting point reported for "O=C1CCN(c2ccc(C=C3SC(=O)NC3=O)cc2F)CC1" = > 200 °C

Entry source: a melting point compilation (Tetko et al.; mined from patent text by program, amines drawn as free bases though some values may be those of a salt)
